Data provenance is patent US20080176838A1.

A collection of compounds and their measured IC50
# Test target: DPP-IV (Homo sapiens)
# Construct: Soluble human DPP-IV lacking the transmembrane anchor (Gly31-Pro766); Pre-Pro-alpha-mating factor leader (secretion fusion) (N, cleaved yes)
# Experimental protocol: Continuous fluorimetric assay of inhibition of DPP-IV peptidase activity (cleavage of Gly-Pro-AMC)
# Recorded conditions: substrate Gly-Pro-AMC 16 μM, pH 7.4, 25° C., 1% DMSO

Recorded IC50, per entry:
>>> value_observed("CS(=O)(=O)NC[C@@H]1CCCN1CC[C@H](N)Cc1ccccc1F [Example 30]")
"< 100 nM"
>>> value_observed("N#Cc1cccc(S(=O)(=O)NC[C@@H]2CCCN2CC[C@H](N)Cc2ccccc2F)c1 [Example 31]")
"< 100 nM"

Query: Write down IC50 measured for item N[C@@H](CCN1CCC[C@H]1COCc1ccccc1)Cc1ccccc1F [Example 44]
Result: 101 to 1000 nM

Query: Write down IC50 measured for item N[C@@H](CCN1CCC[C@H]1CNS(=O)(=O)c1ccccc1)Cc1ccccc1F [Example 25]
Result: < 100 nM

Query: Write down IC50 measured for item N[C@@H](CCN1CCC[C@H]1COc1cccc(F)c1)Cc1ccccc1F [Example 46]
Result: < 100 nM

* * *

# Test target: DPP-IV (Homo sapiens, UniProt P27487)
# Construct: Soluble human DPP-IV lacking the transmembrane anchor (Gly31-Pro766); Pre-Pro-alpha-mating factor leader (secretion fusion) (N, cleaved yes)
# Sequence (P27487 31-766): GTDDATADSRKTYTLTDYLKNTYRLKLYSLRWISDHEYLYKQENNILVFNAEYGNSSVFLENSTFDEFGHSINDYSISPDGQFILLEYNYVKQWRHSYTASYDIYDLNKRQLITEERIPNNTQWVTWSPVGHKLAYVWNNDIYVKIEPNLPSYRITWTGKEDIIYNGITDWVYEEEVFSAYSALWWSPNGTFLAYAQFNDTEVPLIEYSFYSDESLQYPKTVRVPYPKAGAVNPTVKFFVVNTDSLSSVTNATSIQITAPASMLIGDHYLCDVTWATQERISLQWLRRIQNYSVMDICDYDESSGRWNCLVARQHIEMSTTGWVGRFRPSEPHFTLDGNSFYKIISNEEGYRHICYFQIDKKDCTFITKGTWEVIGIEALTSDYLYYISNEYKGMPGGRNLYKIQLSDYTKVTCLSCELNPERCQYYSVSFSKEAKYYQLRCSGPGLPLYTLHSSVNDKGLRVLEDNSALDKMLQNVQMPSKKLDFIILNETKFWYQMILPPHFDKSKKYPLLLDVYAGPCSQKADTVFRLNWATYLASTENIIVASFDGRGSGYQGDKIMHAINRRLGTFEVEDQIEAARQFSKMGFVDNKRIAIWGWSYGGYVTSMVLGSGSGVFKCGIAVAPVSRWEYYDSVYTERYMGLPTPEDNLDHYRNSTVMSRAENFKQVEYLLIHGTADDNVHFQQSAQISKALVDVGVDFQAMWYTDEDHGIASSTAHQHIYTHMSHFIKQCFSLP
# Experimental protocol: Continuous fluorimetric assay of inhibition of DPP-IV peptidase activity (cleavage of Gly-Pro-AMC)
# Recorded conditions: substrate Gly-Pro-AMC 16 μM, pH 7.4, 25° C., 1% DMSO
pIC50: −log10 of the molar value.
Measure: pIC50

Recorded pIC50, per entry:
>>> value_observed("N[C@@H](CCN1CCOCC1CNS(=O)(=O)C1CC1)Cc1ccccc1F (stereo partly drawn)")
"6.00 to 7.00"
>>> value_observed("N[C@@H](CCN1CCC[C@H]1CNS(=O)(=O)CC(F)(F)F)Cc1ccccc1F")
"> 7.00"
>>> value_observed("N[C@@H](CCN1CCC[C@H]1COc1cccc(F)c1)Cc1cccc(Cl)c1")
"> 7.00"
>>> value_observed("N[C@@H](CCN1Cc2ccccc2C[C@H]1C(=O)NC1CC1)Cc1ccccc1F")
"6.00 to 7.00"
>>> value_observed("N[C@@H](CCN1Cc2ccccc2C[C@H]1COc1cccc(F)c1)Cc1ccccc1F")
"6.00 to 7.00"
>>> value_observed("N[C@@H](CCN1CCC[C@H]1CNC(=O)C1CC1)Cc1ccccc1F")
"> 7.00"

Query: Write down pIC50 measured for item COC[C@@H]1CCCN1CC[C@H](N)Cc1ccccc1F
Result: 6.00 to 7.00

Query: Write down pIC50 measured for item N[C@@H](CCN1CCC[C@H]1CNS(=O)(=O)C1CC1)Cc1ccccc1F
Result: > 7.00

Query: Write down pIC50 measured for item N[C@@H](CCN1Cc2ccccc2C[C@H]1CNC(=O)C1CC1)Cc1ccccc1F
Result: 6.00 to 7.00
